Tested on: CAKI-1 renal
run_description: NCI tumour cell line growth inhibition, 48 h; in the data active = GI50 below about 0.43 µM; inactive = the rest
Outcome codes: active, inactive

INSERT INTO assay_data (molecule, assigned_label) VALUES
  ('CCn1nc(-c2ccc(C(=O)OC)cc2)nc2c(=O)n(C)c(=O)nc1-2', 'inactive'),
  ('COc1ccc(C2=C(c3cn(C)c4ccccc34)C(=O)OC2)cc1OC', 'inactive'),
  ('O=C1CCC/C=C\C[C@H]2C=CC(=O)/C2=C/C[C@H](CCc2cccc(C(F)(F)F)c2)O1', 'inactive'),
  ('COc1cc2c(cc1O)CC[C@@H]1[C@@H]2CC[C@]2(C)[C@@H](OCCCN(C)C)CC[C@@H]12', 'active'),
  ('CCOC(=O)CCC(NC(=O)c1ccc(Sc2nc3cc(N)cc(N)c3nc2-c2ccccc2)cc1)C(=O)OCC (stereo unspecified)', 'inactive'),
  ('CCN(Cc1ccccn1)c1ccc(CO)c(Cl)c1', 'inactive'),
  ('ClC(Cl)c1nc(-c2ccccc2)n2nc(-c3ccccc3)cc2n1', 'inactive'),
  ('O=C1OCC(C#Cc2ccccc2)=C1Br', 'inactive'),
  ('Cc1ccc2cc3c(cc(C)c4ccccc43)c3c2c1CC3', 'inactive'),
  ('Cc1ccc(-c2nc3nc(-c4ccc(Br)cc4)nc(N4CCCNCC4)c3o2)cc1', 'inactive'),
  ('COC(=O)[C@@]1(C)CCC[C@]2(C)[C@H]3Cc4occc4[C@H](C)[C@@H]3CC[C@@]12O', 'inactive');

###

Test system: TK-10 renal
run_description: NCI tumour cell line growth inhibition, 48 h
Known TGI of a selection of compounds
value_type: TGI

INSERT INTO results (compound, value_type, result) VALUES
  ('C=CC(C)c1cccc(C=O)c1O (centres undefined)', 'TGI', '> 100 µM'),
  ('O=C(O)C(F)(F)C(F)(F)C(F)(F)C(F)(F)C(F)(F)C(F)(F)C(F)(F)C(F)(F)F', 'TGI', '> 100 µM'),
  ('C/C(=N\[N+](C)(C)C)c1ccc(C)c(C)c1', 'TGI', '> 100 µM'),
  ('COc1ccc(-c2nc3c(-c4ccccc4)nc(-c4ccccc4)cn3c2-c2ccc(OC)cc2)cc1', 'TGI', '> 100 µM'),
  ('CCN(Cc1ccccn1)c1ccc(CO)c(Cl)c1', 'TGI', '0.744 µM'),
  ('NCCNC1=CC(=O)c2nc3ccccc3c3ccnc1c23', 'TGI', '> 100 µM'),
  ('O=C(Nc1ccc(F)cc1F)c1cc(F)ccc1O', 'TGI', '> 100 µM'),
  ('Fc1cccc(F)c1C1SCc2nc3cc4ccccc4cc3n21 (centres undefined)', 'TGI', '> 100 µM'),
  ('Nc1ncnc2c1ccn2COC(CO)CO', 'TGI', '> 100 µM'),
  ('COc1cc2nc3c(=C(C#N)C#N)c4ccccc4n3c(=O)c2cc1OC', 'TGI', '> 100 µM'),
  ('C=C(C)c1nc(C#N)c(N)o1', 'TGI', '> 100 µM'),
  ('CC(C)(C)C(=O)OCCNc1nc(-c2ccccc2)nc2ccccc12', 'TGI', '23 µM'),
  ('O=C(O)/C=C\C(=O)c1ccc(Cl)cc1', 'TGI', '> 100 µM'),
  ('CCOC(=O)CCC(NC(=O)c1ccc(Sc2nc3cc(N)cc(N)c3nc2-c2ccccc2)cc1)C(=O)OCC (centres undefined)', 'TGI', '> 100 µM'),
  ('S=c1oc(CCCCCCCCc2nn(CNc3ccccc3)c(=S)o2)nn1CNc1ccccc1', 'TGI', '> 100 µM'),
  ('COc1ccc2c(c1)O/C(=C\c1ncc([N+](=O)[O-])n1C)C2=O', 'TGI', '> 20 µM'),
  ('C/C=C/C1=CN2C(=O)c3cc(OC4OC(C)C(NC)C(C)(O)C4O)c(C)cc3N=C[C@@H]2C1 (some centres undefined)', 'TGI', '0.0683 µM'),
  ('O=C(O)C1CCC(=O)N1C(=O)C(Cl)c1ccccc1 (centres undefined)', 'TGI', '> 100 µM'),
  ('C#CCCCCC#Cc1ccccc1C(=O)C=[N+]=[N-]', 'TGI', '> 100 µM'),
  ('CC1(C)COP(=S)(c2ccccn2)O[C@@H]1c1ccccc1 (some centres undefined)', 'TGI', '> 100 µM'),
  ('O=C1c2ccccc2C(=O)N1CCCC(=O)n1cc(F)c(=O)[nH]c1=O', 'TGI', '> 100 µM'),
  ('N#Cc1cnc(=O)n(C2CC(O)C(CO)O2)c1 (centres undefined)', 'TGI', '> 100 µM'),
  ('Cc1noc(C)c1-n1nc2ccc3nonc3c2n1', 'TGI', '> 82 µM'),
  ('O=C(OCCO)C1CC2CC1C1(C2)OCCO1 (centres undefined)', 'TGI', '> 100 µM');

###

Known TGI of a selection of compounds
System: IGROV1 ovarian
run_description: NCI tumour cell line growth inhibition, 48 h
value_type: TGI

INSERT INTO results (compound, tested_target, result) VALUES
  ('Cc1nc2ccc(Cl)cc2c(Cl)c1CCCl', 'IGROV1 ovarian', '> 100 µM'),
  ('O=C(CSc1ncnc2nc[nH]c12)c1ccccc1', 'IGROV1 ovarian', '> 100 µM'),
  ('COP(=O)(OC)/C(=C/c1cn(C(C)=O)c2ccccc12)NC(C)=O', 'IGROV1 ovarian', '> 100 µM'),
  ('Cc1ccc(NCCN(C)C)c2c(=O)c3cc(O)ccc3oc12', 'IGROV1 ovarian', '24.9 µM'),
  ('COc1ccc(-c2nc(N3CCCC3)no2)cc1', 'IGROV1 ovarian', '> 100 µM'),
  ('COC(=O)C(CCCCCCCC(C(=O)OC)c1nc2n(c1O)C(=N)N=N2)c1nc2n(c1O)C(=N)N=N2 (stereo unspecified)', 'IGROV1 ovarian', '> 100 µM'),
  ('Cc1ccc(-c2nc3nc(-c4ccc(Br)cc4)nc(N4CCCNCC4)c3o2)cc1', 'IGROV1 ovarian', '3.61 µM'),
  ('c1ccc(C2N=NN(c3ccccc3)C2N2CCCCC2)cc1 (stereo unspecified)', 'IGROV1 ovarian', '> 100 µM'),
  ('C[N+]1([O-])CCC(O)(C2CC2)CC1 (stereo unspecified)', 'IGROV1 ovarian', '> 100 µM'),
  ('CCOC(=O)C(C)c1nc2cc(N3CCOCC3)c(F)cc2[nH]c1=O (stereo unspecified)', 'IGROV1 ovarian', '> 100 µM'),
  ('CC(C)(O)[C@@H]1CC[C@](C)(C2[C@@H](O)C[C@@]3(C)C4C[C@H](OC5OCC(O)C(O)C5O)[C@H]5C(C)(C)[C@@H](OC6OCC(O)C(O)C6OC6OCC(O)C(O)C6O)CC[C@@]56C[C@@]46CC[C@]23C)O1 (stereo partly specified)', 'IGROV1 ovarian', '> 100 µM'),
  ('CCCNC1=C(C)C(=O)C2=C(C1=O)[C@H](COC(N)=O)[C@]1(OC)[C@@H]3N[C@@H]3CN21', 'IGROV1 ovarian', '33.3 µM'),
  ('CC1(C)Cc2c(c3ccccc3c3nc4c(nc23)c2c(c3ccccc34)OC(C)(C)C2)O1', 'IGROV1 ovarian', '> 100 µM'),
  ('O=C1CSC(c2ccc([N+](=O)[O-])cc2)N1c1nc(-c2ccc3c(c2)CCCC3)cs1 (stereo unspecified)', 'IGROV1 ovarian', '> 100 µM'),
  ('CC1(C)[C@@H]2CC[C@@]1(C)C1(SS1=O)C21Cc2ccccc2C1 (stereo partly specified)', 'IGROV1 ovarian', '37.2 µM'),
  ('CC1(C)COP(=S)(c2ccccn2)O[C@@H]1c1ccccc1 (stereo partly specified)', 'IGROV1 ovarian', '> 100 µM'),
  ('Cn1c(-c2cccc(N)c2)[n+](C)c2ccccc21', 'IGROV1 ovarian', '> 100 µM'),
  ('CC(C)OP(=O)(OC(C)C)c1ncc(-c2ccc(C(F)(F)F)cc2)c(NC2CCCCCC2)n1', 'IGROV1 ovarian', '> 10 µM'),
  ('COc1ccc2c(c1)[n+](=O)c(C(=O)C/C(=N/NC(=O)c1ccccc1O)C(=O)Nc1ccc(Cl)c(C(F)(F)F)c1)c(C)n2[O-]', 'IGROV1 ovarian', '> 100 µM'),
  ('O=C1CCc2c(Oc3ccc4c(c3)[C@H]3[C@@H](O4)[C@@H]3c3nc4ccc(C(F)(F)F)cc4[nH]3)ccnc2N1', 'IGROV1 ovarian', '> 100 µM'),
  ('CC(C)N(Cc1c(F)cccc1F)c1ccc(CO)c(Cl)c1', 'IGROV1 ovarian', '0.186 µM'),
  ('N#CC1C(=O)C(=O)N(c2ccccc2)C1=O (stereo unspecified)', 'IGROV1 ovarian', '> 100 µM'),
  ('O=S(=O)(Nc1ccc(Cl)c(F)c1)c1ccc(-c2cnc(C3CC3)o2)cc1', 'IGROV1 ovarian', '15.2 µM'),
  ('COc1cc(O)cc2oc(-c3ccc(O)cc3)cc(=O)c12', 'IGROV1 ovarian', '> 100 µM'),
  ('CCc1n[nH]c(=O)n1N1C(=O)C2CCCCC2C1=O (stereo unspecified)', 'IGROV1 ovarian', '> 100 µM'),
  ('COC(=O)C1=C(O)C(C(=O)OC)[C@]2(O)[C@@H](C(=O)OC)[C@H]1[C@H](C)[C@@H](c1ccccc1)[C@@H]2C(=O)OC (stereo partly specified)', 'IGROV1 ovarian', '93.5 µM'),
  ('Cc1ccc(-c2nc3cc(N4CCN(C)CC4)c(F)cc3[nH]2)cc1', 'IGROV1 ovarian', '90 µM'),
  ('O=C1CCC/C=C\C[C@H]2C=CC(=O)/C2=C/C[C@H](CCc2cccc(C(F)(F)F)c2)O1', 'IGROV1 ovarian', '9.53 µM'),
  ('N#CCCC1(CCC#N)CCCCCCC(CCC#N)(CCC#N)C(=O)C1=O', 'IGROV1 ovarian', '> 100 µM'),
  ('CC(C)(Br)C(Br)CCC1(C(Br)CBr)CO1 (stereo unspecified)', 'IGROV1 ovarian', '> 10 µM'),
  ('Nc1nc2ccc(NCc3ccc(C(=O)NC(CCC(=O)O)C(=O)O)cc3)cc2c(=O)[nH]1 (stereo unspecified)', 'IGROV1 ovarian', '> 100 µM'),
  ('CN(C)CCCN1N=Nc2cccc3cccc1c23', 'IGROV1 ovarian', '> 100 µM'),
  ('C(CCCCc1nnc(N2CCOCC2)o1)CCCc1nnc(N2CCOCC2)o1', 'IGROV1 ovarian', '> 100 µM'),
  ('CC(C)(C)C(=O)OCCNc1nc(-c2ccccc2)nc2ccccc12', 'IGROV1 ovarian', '> 100 µM'),
  ('CC1(C)S[C@H](c2ccccc2C(=O)O)N[C@@H]1CC(=O)O', 'IGROV1 ovarian', '> 100 µM'),
  ('O=C1C(Br)=C(C2=CC(=P(c3ccccc3)(c3ccccc3)c3ccccc3)C=C2)C(=O)C(Br)=C1C1=CC(=P(c2ccccc2)(c2ccccc2)c2ccccc2)C=C1', 'IGROV1 ovarian', '> 100 µM'),
  ('O=C(/C=C\Sc1ccccn1)c1cccc(Br)c1', 'IGROV1 ovarian', '50.4 µM'),
  ('CC1NOC(=O)C1N=Nc1ccccc1Br (stereo unspecified)', 'IGROV1 ovarian', '> 100 µM'),
  ('S=c1ssnc1-c1ccccn1', 'IGROV1 ovarian', '11 µM'),
  ('COc1cc2nc3c(=C(C#N)C#N)c4ccccc4n3c(=O)c2cc1OC', 'IGROV1 ovarian', '> 100 µM'),
  ('COc1cc(OC)c2nc3occc3c(OC)c2c1', 'IGROV1 ovarian', '> 100 µM');
